experiment: yeast display, Sf9 membrane polyspecificity reagent, FACS + sequencing; frameworks hold sequencing errors
TEST READOUT: polyreactivity (PSR sort gate)

As a guide, the following entries are already answered.
QUERY SEQUENCE	EXPERIMENTAL VALUE
QVQLVESGGGLVQAGGSLRLSCAASGSTFYRNAMGWYRQAPGKERELVAAIRKTGGSTHYADSVKGRFTISRDNAKNTVYLQMNSLKPEDTAVYYCNATYIYGWYNYWGQGTQVTVSS	low polyreactivity
QVQLVESGGGLVQAGGRLRLSCAASGSIFGRYAMGRYRQAPGKERELVAAITWSATSTYYADYVKGRFTISRDNAKNTVYLQMNSLKPEDTAVYYCAVRTPRARYTYGSWGQGTQVTVSS	high polyreactivity
QVQLVESGGGLVQAGGSLRLSFAASGINFRSYTMGWYRQAPGKERELVAGITRSGGSTYYADSVKGRFTISRDNAKNTVYLQMNSLKPEDSAVYYCAAKFRAGRSSYYWGHGTQVTVSS	high polyreactivity
QVQLVESGGGLVQAGGSLRLSCAASGRTFEGNAMGWYRQAPGKERELVAAISTSGGRTYYADSVKGRFTISRDNAKNTVYLQMNSLKPDDTAVYYCAVDHYSSYEYWGQGTQVTVSS	low polyreactivity
QVQLVESGGGLVQAGGSLRLSCAASGRTFSRYVMGWYRQAPGKERELVAGISQSGARTTYADSVKGRFTISRDNAKNTVYLQMNSLKPEDTAVYYCAAVGYGIRSYYSYDYWGQGTQVTVSS	high polyreactivity

Could you tell me which polyreactivity (PSR sort gate) is on file for QVQLVESGGGLVQAGGSLRLSCAASGRIFGFNAMGWYRQAPGKERELVAGITDSSGRTNYADSVKGRFTISRDNAKNTVYLQMNSLKPEDTAVYYCAKASAYGLANDYDYWGQGTQVTVSS ? low polyreactivity

Find the recorded polyreactivity (PSR sort gate) belonging to QVQLVESGGGLVQAGGSLRLSCAASGSIFEYNAMGWYRPAPGKERELVAAISWSSGTTYYADSVKGRFTISLDNAKNSVYLQMNSLKPEDTAVYYCNAGRYGKDSDYWGQGTQVTVSS and report it. low polyreactivity

Recorded polyreactivity (PSR sort gate) of QVQLVESGGGLVQAGGSLRLSCAASGFIFNSNARGWYRQAPGKERELVAAISGLGGSTYYADSVKGRFTISRDNAKNTVYIQMNSLKPEDTAVYYCAADVTYGTKWAYDYWGQGTQVTVSS , please. high polyreactivity

Recorded polyreactivity (PSR sort gate) for QVQLVETGGRLVQAGGSLRLSCAASGITLPKYAMGWYRPAPGKERELVAAISRSSGRTYYADSVKGRFTISRDNAKNTVYLQMNSLKPEDTAVYYCAASHGGYITRYNYWGQGTQVTVSS , please? high polyreactivity

May I ask what polyreactivity (PSR sort gate) has been recorded for QVQLVESGRGLVQAGCSLRLSCASSGFIFVFNAMGRYRQAPGKERELVAAINGGDITNYAYSVKGRFTISRDNAKNTVYIQMNSLKPEDTAVYYCAADGEDSLWSGYDYDYWGLGTQVTVSS ? low polyreactivity

# polyreactivity (PSR sort gate) lookup, item QDQLVESGGGLVQAGGSLRLSCAASGITFAYYAMGWYTQAPGKERELVAGISKSGGRTYYADSVKGRFTISRDHAKNTVYLQMNSLKPEDTAVYYCAAQDARRIVYYRYYYWGQGTQVTVSS high polyreactivity
